These molecules were tested on Mtb PanD (Mycobacterium tuberculosis, UniProt P9WIL3); Kd is the recorded read-out.
Sequence (P9WIL3 25-139): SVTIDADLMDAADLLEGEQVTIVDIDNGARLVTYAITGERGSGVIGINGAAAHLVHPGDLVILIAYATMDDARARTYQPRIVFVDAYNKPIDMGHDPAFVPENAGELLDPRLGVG
Sequence (P9WIL3 1-24): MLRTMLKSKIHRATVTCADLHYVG

Would you kindly share the measured Kd for `Nc1nccnc1C(=O)O` ?
37 to 47 µM

In the following, a different molecule is considered.
So what's the measured Kd for this one? `Nc1cnc(C(=O)O)cn1`
37 to 47 µM
